target: fatty acyl CoA:cholesterol acyl transferase (ACAT) (Rattus norvegicus, UniProt O70536); construct: The supernatant, containing the microsomal fraction, served as the source of the cholesterol-esterifying enzyme; from tissue; host or cells: rat adrenals, homogenate, 1000 x g supernatant containing the microsomal fraction; test: In vitro inhibition of fatty acyl CoA:cholesterol acyl transferase (ACAT), rat adrenal supernatant; format: biochemical; settings: final concentration 5.2 μg./ml., pH 7.4, 37° C., oleoyl CoA (14C)
ASSAY METRIC: inhibition at 5.2 µg/mL (%)

Reference set, count: 2
1) Cc1cc(C)c(NC(=O)N(Cc2ccccc2)Cc2ccccc2)c(C)c1; 36.9
2) CC(=O)c1cccc(NC(=O)N(Cc2ccccc2)Cc2ccccc2)c1; 80.7

(a) O=C(Nc1ccc(Cl)cc1Cl)N(Cc1ccccc1)Cc1ccccc1
(b) O=C(Nc1ccc([N+](=O)[O-])cc1)N(Cc1ccccc1)Cc1ccccc1
query: Between the entries labeled a and b , whose measured inhibition at 5.2 µg/mL is lower? Answer format: the label of the selected item.
result: b
(b: 52.2%, a: 83.3%)

* * *

Target: fatty acyl CoA:cholesterol acyl transferase (ACAT) (Rattus norvegicus, UniProt O70536)
Construct: The supernatant, containing the microsomal fraction, served as the source of the cholesterol-esterifying enzyme; from tissue; host or cells: rat adrenals, homogenate, 1000 x g supernatant containing the microsomal fraction
Sequence (O70536 1-545): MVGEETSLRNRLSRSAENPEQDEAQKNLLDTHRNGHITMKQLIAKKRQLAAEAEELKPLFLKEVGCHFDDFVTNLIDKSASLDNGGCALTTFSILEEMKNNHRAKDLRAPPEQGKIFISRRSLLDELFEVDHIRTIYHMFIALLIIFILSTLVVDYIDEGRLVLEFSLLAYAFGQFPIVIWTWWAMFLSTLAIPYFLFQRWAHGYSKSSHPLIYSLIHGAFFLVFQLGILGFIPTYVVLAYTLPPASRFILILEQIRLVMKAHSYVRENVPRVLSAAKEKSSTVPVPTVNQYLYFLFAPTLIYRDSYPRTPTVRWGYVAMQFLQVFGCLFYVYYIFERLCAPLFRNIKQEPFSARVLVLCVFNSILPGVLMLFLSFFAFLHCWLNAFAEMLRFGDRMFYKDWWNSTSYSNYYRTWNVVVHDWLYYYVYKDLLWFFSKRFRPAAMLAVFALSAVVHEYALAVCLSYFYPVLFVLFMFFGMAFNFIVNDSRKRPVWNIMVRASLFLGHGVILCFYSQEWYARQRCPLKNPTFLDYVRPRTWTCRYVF
Assay: In vitro inhibition of fatty acyl CoA:cholesterol acyl transferase (ACAT), rat adrenal supernatant
Type: biochemical
Settings: final concentration 5.2 μg./ml., pH 7.4, 37° C., oleoyl CoA (14C)
ASSAY METRIC: inhibition at 5.2 µg/mL (%)

1. O=C(Nc1cc(Cl)ccc1Cl)N(Cc1ccccc1)Cc1ccccc1; 82.4
2. O=C(Nc1ccc(Oc2ccccc2)cc1)N(Cc1ccccc1)Cc1ccccc1; 94.3
3. Cc1ccc(NC(=S)N(Cc2ccccc2)Cc2ccccc2)cc1Cl; 94.1
4. Cc1cccc(Cl)c1NC(=O)N(Cc1ccccc1)Cc1ccccc1; 83.9
5. O=C(Nc1ccccc1)N(Cc1ccccc1)Cc1ccccc1; 90.4
6. Cc1ccc(NC(=O)N(Cc2ccccc2)Cc2ccccc2)cc1; 89.8
7. Cc1c(Cl)cccc1NC(=O)N(Cc1ccccc1)Cc1ccccc1; 83.8

* * *

biological target: fatty acyl CoA:cholesterol acyl transferase (ACAT) (Rattus norvegicus); construct: The supernatant, containing the microsomal fraction, served as the source of the cholesterol-esterifying enzyme; from tissue; host or cells: rat adrenals, homogenate, 1000 x g supernatant containing the microsomal fraction; assay: In vitro inhibition of fatty acyl CoA:cholesterol acyl transferase (ACAT), rat adrenal supernatant; assay type: biochemical; settings: final concentration 5.2 μg./ml., pH 7.4, 37° C., oleoyl CoA (14C)
ASSAY METRIC: inhibition at 5.2 µg/mL (%)

1) Cc1ccc(NC(=S)N(Cc2ccccc2)Cc2ccccc2)c(C)c1; 78.7
2) Cc1ccc(NC(=O)N(Cc2ccccc2)Cc2ccccc2)cc1Cl; 94
3) O=C(Nc1ccc(Cl)cc1C(F)(F)F)N(Cc1ccccc1)Cc1ccccc1; 81.8
4) CCCCOc1ccc(NC(=O)N(Cc2ccccc2)Cc2ccccc2)cc1 [1,1-Dibenzyl-3-(4-n-butoxyphenyl)urea]; 90.2
5) O=C(Nc1cccc(Br)c1)N(Cc1ccccc1)Cc1ccccc1 [1,1-Dibenzyl-3-(3-bromophenyl)urea]; 91.9
6) O=C(Nc1ccc(Br)cc1)N(Cc1ccccc1)Cc1ccccc1 [1,1-Dibenzyl-3-(4-bromophenyl)urea]; 79.9
7) O=C(Nc1cccc([N+](=O)[O-])c1)N(Cc1ccccc1)Cc1ccccc1 [1,1-Dibenzyl-3-(3-nitrophenyl)urea]; 81.3
8) CSc1ccc(NC(=O)N(Cc2ccccc2)Cc2ccccc2)cc1 [1,1-Dibenzyl-3-(4-methylthiophenyl)urea]; 67.1
9) Cc1ccc(NC(=O)N(Cc2ccccc2)Cc2ccccc2)cc1C [1,1-Dibenzyl-3-(3,4-dimethylphenyl)urea]; 71.8
10) COc1ccc(OC)c(NC(=O)N(Cc2ccccc2)Cc2ccccc2)c1 [1,1-Dibenzyl-3-(2,5-dimethoxyphenyl)urea]; 87.9
11) O=C(Nc1ccccc1Cl)N(Cc1ccccc1)Cc1ccccc1 [1,1-Dibenzyl-3-(2-chlorophenyl)urea]; 87.8
12) O=C(Nc1ccc(Cl)cc1)N(Cc1ccccc1)Cc1ccccc1 [1,1-Dibenzyl-3-(4-chlorophenyl)urea]; 77.5
